Exercise: state measured EC50 for each of the molecules provided.
# systemUnderTest: soluble guanylate cyclase (sGC) (Homo sapiens (Human), UniProt Q02108+Q02153)
# Sequence (Q02153 whole entry): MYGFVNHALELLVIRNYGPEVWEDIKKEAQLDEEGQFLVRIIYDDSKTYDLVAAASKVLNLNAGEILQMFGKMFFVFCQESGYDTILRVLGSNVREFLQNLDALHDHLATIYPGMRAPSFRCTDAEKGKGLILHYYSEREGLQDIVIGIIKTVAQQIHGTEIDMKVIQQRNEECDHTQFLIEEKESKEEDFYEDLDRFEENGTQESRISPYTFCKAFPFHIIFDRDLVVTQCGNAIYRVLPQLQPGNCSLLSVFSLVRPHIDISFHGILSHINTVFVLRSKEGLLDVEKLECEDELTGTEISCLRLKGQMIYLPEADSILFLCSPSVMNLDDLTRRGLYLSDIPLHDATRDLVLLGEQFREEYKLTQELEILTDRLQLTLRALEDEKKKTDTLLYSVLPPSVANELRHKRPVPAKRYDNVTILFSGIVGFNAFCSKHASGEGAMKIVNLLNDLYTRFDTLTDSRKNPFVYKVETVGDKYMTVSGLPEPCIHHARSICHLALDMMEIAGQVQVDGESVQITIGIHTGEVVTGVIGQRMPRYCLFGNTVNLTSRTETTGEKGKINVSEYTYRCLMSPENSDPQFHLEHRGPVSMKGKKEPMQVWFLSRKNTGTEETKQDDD
# Sequence (Q02108 whole entry): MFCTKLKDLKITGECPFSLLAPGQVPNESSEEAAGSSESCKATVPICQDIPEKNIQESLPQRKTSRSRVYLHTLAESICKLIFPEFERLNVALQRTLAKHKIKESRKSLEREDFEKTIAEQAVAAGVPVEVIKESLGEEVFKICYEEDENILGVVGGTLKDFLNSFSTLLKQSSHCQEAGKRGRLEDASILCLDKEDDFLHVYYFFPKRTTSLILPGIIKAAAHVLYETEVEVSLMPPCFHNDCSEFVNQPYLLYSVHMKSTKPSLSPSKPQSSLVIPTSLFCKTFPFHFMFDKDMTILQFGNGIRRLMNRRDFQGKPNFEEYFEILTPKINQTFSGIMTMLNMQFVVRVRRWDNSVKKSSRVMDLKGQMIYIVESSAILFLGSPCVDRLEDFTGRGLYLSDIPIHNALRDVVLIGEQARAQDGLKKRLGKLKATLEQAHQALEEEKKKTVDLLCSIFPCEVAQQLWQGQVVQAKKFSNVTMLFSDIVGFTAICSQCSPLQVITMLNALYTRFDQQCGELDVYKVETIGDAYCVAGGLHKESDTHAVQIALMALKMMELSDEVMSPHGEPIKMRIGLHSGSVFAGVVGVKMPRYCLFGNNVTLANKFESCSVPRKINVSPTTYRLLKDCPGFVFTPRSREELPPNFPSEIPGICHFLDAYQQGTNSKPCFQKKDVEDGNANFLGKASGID
# testDetails: sGC-HEK-cGMP assay run with SNP incubation (HEK WC assay)
# Type: cell-based
# details: in the presence of 10 uM SNP

Ask | Name the recorded EC50 for CC(C)(C(=O)Nc1cnc(-c2cc(-c3ccon3)n(Cc3ccccc3F)n2)nc1N)n1cncn1 .
Reply | < 20 µM

Ask | Name the recorded EC50 for CC(C)(Oc1ccccc1)C(=O)Nc1cnc(-c2cc(-c3ccon3)n(Cc3ccccc3F)n2)nc1N .
Reply | 60 to 100 µM

Ask | Name the recorded EC50 for Nc1nc(-c2cc(-c3ccon3)n(Cc3ccccc3F)n2)ncc1NC(=O)c1ccc(Cl)cc1 .
Reply | < 20 µM

Ask | Name the recorded EC50 for Nc1nc(-c2cc(-c3ccon3)n(Cc3ccccc3F)n2)ncc1NC(=O)c1cccc(F)c1 .
Reply | < 20 µM

Ask | Name the recorded EC50 for C=C(C)C(=O)Nc1cnc(-c2cc(-c3ccon3)n(Cc3ccccc3F)n2)nc1N .
Reply | < 20 µM

Ask | Name the recorded EC50 for Nc1nc(-c2cc(-c3ncco3)n(Cc3ccccc3F)n2)ncc1N=C(c1ccccc1)c1ccccc1 .
Reply | 100 to 300 µM

Ask | Name the recorded EC50 for CO[C@@](C(=O)Nc1cnc(-c2cc(-c3ccon3)n(Cc3ccccc3F)n2)nc1N)(c1ccccc1)C(F)(F)F .
Reply | 20 to 40 µM

* * *

Exercise: state measured inhibition at 10 µM for each of the molecules provided.
# Tested on: Thoracic aortic rings
# testDetails: Alternative thoracic aortic rings assay (Example 19b; resting tension as 100% inhibition)
# Design: species or system rat
# details: Rattus norvegicus; 10 μM, Table 10A; read-out: Percent Relaxation at 10 μM

Ask | Name the recorded inhibition at 10 µM for COC(=O)Nc1c(N)nc(-c2cc(-c3ccccc3)n(Cc3ccccc3F)n2)nc1N .
Reply | 60 to 80%

Ask | Name the recorded inhibition at 10 µM for COC(=O)N(C)c1c(N)nc(-c2cc(-c3ccccc3)n(Cc3ccccc3F)n2)nc1N .
Reply | 20 to 40%

Ask | Name the recorded inhibition at 10 µM for CN(C(=O)OC(C)(C)C)c1cnc(-c2cc(-c3ccon3)n(Cc3ccccc3F)n2)nc1N .
Reply | 80 to 100%

Ask | Name the recorded inhibition at 10 µM for Nc1ccnc(-c2cc(-c3ccccc3)n(Cc3ccccc3F)n2)n1 .
Reply | 80 to 100%

Ask | Name the recorded inhibition at 10 µM for CCOC(=O)c1cnc(-c2cc(-c3ccon3)n(Cc3ccccc3F)n2)nc1Cl .
Reply | 80 to 100%

Ask | Name the recorded inhibition at 10 µM for CC(C)(C)OC(=O)Nc1cnc(-c2cc(-c3ccon3)n(Cc3ccccc3F)n2)nc1N .
Reply | 100 to 120%

Ask | Name the recorded inhibition at 10 µM for Nc1nc(-c2cc(-c3ccon3)n(Cc3ccccc3F)n2)ncc1C1(O)CC1 .
Reply | 100 to 120%

Ask | Name the recorded inhibition at 10 µM for Nc1ccnc(-c2cc(-c3cocn3)n(Cc3ccccc3F)n2)n1 .
Reply | 100 to 120%

* * *

# systemUnderTest: soluble guanylate cyclase (sGC) (Homo sapiens (Human), UniProt Q02108+Q02153)
# testDetails: sGC-HEK-cGMP assay run with SNP incubation (HEK WC assay)
# Format: cell-based
# details: read-out: HEK WC Assay (% Emax at 10 μM with 10 uM SNP)
Exercise: state measured Emax for each of the molecules provided.

Ask | Give Emax (soluble guanylate cyclase (sGC) (Homo sapiens (Human), UniProt Q02108+Q02153)) of the following molecule: OCCc1cnc(-c2cc(-c3ccon3)n(Cc3ccccc3F)n2)nc1O
Reply | 10 to 20%

Ask | Give Emax (soluble guanylate cyclase (sGC) (Homo sapiens (Human), UniProt Q02108+Q02153)) of the following molecule: c1cnc(-c2cc(-c3ccon3)n(Cc3cscn3)n2)nc1
Reply | 0 to 10%

Ask | Give Emax (soluble guanylate cyclase (sGC) (Homo sapiens (Human), UniProt Q02108+Q02153)) of the following molecule: CC(C)(O)c1cnc(-c2cc(-c3ncco3)n(Cc3ccccc3F)n2)nc1N
Reply | 40 to 60%

Ask | Give Emax (soluble guanylate cyclase (sGC) (Homo sapiens (Human), UniProt Q02108+Q02153)) of the following molecule: O=c1cc(O)oc2nc(-c3cc(-c4ccon4)n(Cc4ccccc4F)n3)nc(O)c12
Reply | 0 to 10%
